- System: ICAM-1
- test: TNF-α-induced ICAM-1 cell surface expression in HMVEC, flow cytometry
- Type: cell-based, human
- particulars: 100 nM
measured_property: % Cell Surface Inhibition (ICAM-1) (%)
Answer format: numeric, % implied, no suffix.

*Q* Report % Cell Surface Inhibition (ICAM-1) for AoToGoCoAoTsTsCsTsGsCsCsCsCsCoAoAoGoGoA [ISIS 15727, reference compound] please.
*A* 13

*Q* Recorded % Cell Surface Inhibition (ICAM-1) for ToCoAsGsTsAsAsTsAsGsCsCsCoCoAoCoAoToGoG [ISIS 17552, reference compound] , please?
*A* 2

*Q* Which % Cell Surface Inhibition (ICAM-1) value is on record for ToCoCsGsTsCsAsTsCsGsCsTsCoCoToCoAoGoGoG [ISIS 15168] ?
*A* 46

*Q* If you can, please state the reported % Cell Surface Inhibition (ICAM-1) value of ToCoCoCoGoCsCsTsGsTsGsAsCsAsToGoCoAoToT [ISIS 12854] .
*A* 43

---

- System: VCAM-1
- test: TNF-α-induced VCAM-1 cell surface expression in HMVEC, flow cytometry
- Assay type: cell-based, human
- particulars: 50 nM
measured_property: % Cell Surface Expression (VCAM-1) (%)
I only need the number, in %, no unit after it.

*Q* # % Cell Surface Expression (VCAM-1) lookup, item ToCoCoCoGoCsCsTsGsTsGsAsCsAsToGoCoAoToT [ISIS 12854]
*A* 37

*Q* May I ask what % Cell Surface Expression (VCAM-1) has been recorded for ToCoCsGsTsCsAsTsCsGsCsTsCoCoToCoAoGoGoG [ISIS 15168] ?
*A* 51

*Q* Consider the substance ToCoAsGsTsAsAsTsAsGsCsCsCoCoAoCoAoToGoG [ISIS 17552, reference compound] and give its measured % Cell Surface Expression (VCAM-1).
*A* 97

*Q* Any idea what % Cell Surface Expression (VCAM-1) was measured for AoToGoCoAoTsTsCsTsGsCsCsCsCsCoAoAoGoGoA [ISIS 15727, reference compound] ?
*A* 81

---

Field: % Cell Surface Expression (E-selectin). Provide a value for each of the substances that follow.
- Tested on: E-selectin
- test: TNF-α-induced E-selectin cell surface expression in HMVEC, flow cytometry
- Assay type: cell-based, human
- particulars: time course, 72 h after oligonucleotide treatment, TNF-α 5 hours

*Q* # input substance: ToCoCsGsTsCsAsTsCsGsCsTsCoCoToCoAoGoGoG [ISIS 15168] ; wanted: its % Cell Surface Expression (E-selectin)
*A* 42%

*Q* Param item = AoToGoCoAoTsTsCsTsGsCsCsCsCsCoAoAoGoGoA [ISIS 15727, reference compound] ; retrieve measured % Cell Surface Expression (E-selectin).
*A* 81%

*Q* Return reported % Cell Surface Expression (E-selectin); argument: ToCoAsGsTsAsAsTsAsGsCsCsCoCoAoCoAoToGoG [ISIS 17552, reference compound]
*A* 111%

*Q* Quick one: % Cell Surface Expression (E-selectin) of GsAsAsGsTsCsAsGsCsCsAsAsGsAsAsCsAsGsCsT (GAAGTCAGCCAAGAACAGCT; all phosphorothioate, sugars by position and methylation of C not given here) [ISIS 11928, fully phosphorothioated oligonucleotide with all 2'-methoxyethoxy nucleotides except a 3' terminal 2'-deoxy nucleotide, antisense to E-selectin] ?
*A* 32%

*Q* Recorded % Cell Surface Expression (E-selectin) for ToCoCoCoGoCsCsTsGsTsGsAsCsAsToGoCoAoToT [ISIS 12854] , please?
*A* 24%

Sourced from patent US6114517A
